Data origin, for the record: the supplement of paper PMC11246515

# Method Summary: total protein half-life in vivo (active degradation + dilution); higher = more stable protein
# Condition Label: E. coli NCM3722 delta-hslV; growth: N-lim chemostat; doubling time 6 h
// reported total protein half-life in vivo per item

Sequence Entry	Units	total protein half-life in vivo
MRWLPFIAIFLYVYIEISIFIQVAHVLGVLLTLVLVIFTSVIGMSLVRNQGFKNFVLMQQKMAAGENPAAEMIKSVSLIIAGLLLLLPGFFTDFLGLLLLLPPVQKHLTVKLMPHLRFSRMPGGGFSAGTGGGNTFDGEYQRKDDERDRLDHKDDRQD	h	6.44
MAIILGIDPGSRVTGYGVIRQVGRQLSYLGSGCIRTKVDDLPSRLKLIYAGVTEIITQFQPDYFAIEQVFMAKNADSALKLGQARGVAIVAAVNQELPVFEYAARQVKQTVVGIGSAEKSQVQHMVRTLLKLPANPQADAADALAIAITHCHVSQNAMQMSESRLNLARGRLR [P0A814]	h	3.29
MKKYLALALIAPLLISCSTTKKGDTYNEAWVKDTNGFDILMGQFAHNIENIWGFKEVVIAGPKDYVKYTDQYQTRSHINFDDGTITIETIAGTEPAAHLRRAIIKTLLMGDDPSSVDLYSDVDDITISKEPFLYGQVVDNTGQPIRWEGRASNFADYLLKNRLKSRSNGLRIIYSVTINMVPNHLDKRAHKYLGMVRQASRKYGVDESLILAIMQTESSFNPYAVSRSDALGLMQVVQHTAGKDVFRSQGKSGTPSRSFLFDPASNIDTGTAYLAMLNNVYLGGIDNPTSRRYAVITAYNGGAGSVLRVFSNDKIQAANIINTMTPGDVYQTLTTRHPSAESRRYLYKVNTAQKSYRRR [P0C066]	h	6.24

* * *

# Method Summary: total protein half-life in vivo (active degradation + dilution); higher = more stable protein
# Condition Label: wild type E. coli NCM3722; growth: P-lim chemostat; doubling time 12 h
Documented total protein half-life in vivo across a set of sequences

Sequence Entry	total protein half-life in vivo / h
MSLFHLIAPSGYCIKQHAALRGIQRLTDAGHQVNNVEVIARRCERFAGTETERLEDLNSLARLTTPNTIVLAVRGGYGASRLLADIDWQALVARQQHDPLLICGHSDFTAIQCGLLAHGNVITFSGPMLVANFGADELNAFTEHHFWLALRNETFTIEWQGEGPTCRAEGTLWGGNLAMLISLIGTPWMPKIENGILVLEDINEHPFRVERMLLQLYHAGILPRQKAIILGSFSGSTPNDYDAGYNLESVYAFLRSRLSIPLITGLDFGHEQRTVTLPLGAHAILNNTREGTQLTISGHPVLKM	10.8
MSLSRTQIVNWLTRCGDIFSTESEYLTGLDREIGDADHGLNMNRGFSKVVEKLPAIADKDIGFILKNTGMTLLSSVGGASGPLFGTFFIRAAQATQARQSLTLEELYQMFRDGADGVISRGKAEPGDKTMCDVWVPVVESLRQSSEQNLSVPVALEAASSIAESAAQSTITMQARKGRASYLGERSIGHQDPGATSVMFMMQMLALAAKE	11.8
MVKLPPLSLYIHIPWCVQKCPYCDFNSHALKGEVPHDDYVQHLLNDLDNDVAYAQGREVKTIFIGGGTPSLLSGPAMQTLLDGVRARLPLAADAEITMEANPGTVEADRFVDYQRAGVNRISIGVQSFSEEKLKRLGRIHGPQEAKRAAKLASGLGLRSFNLDLMHGLPDQSLEEALGDLRQAIELNPPHLSWYQLTIEPNTLFGSRPPVLPDDDALWDIFEQGHQLLTAAGYQQYETSAYAKPGYQCQHNLNYWRFGDYIGIGCGAHGKVTFPDGRILRTTKTRHPRGFMQGRYLESQRDVEATDKPFEFFMNRFRLLEAAPRVEFIAYTGLCEDVIRPQLDEAIAQGYLTECADYWQITEHGKLFLNSLLELFLAE	10.4
MRTISYSEARQNLSATMMKAVEDHAPILITRQNGEACVLMSLEEYNSLEETAYLLRSPANARRLMDSIDSLKSGKGTEKDIIE	3.61
MDLQHWQAQFENWLKNHHQHQDAAHDVCHFRRVWATAQKLAADDDVDMLVILTACYFHDIVSLAKNHPQRQRSSILAAEETRRLLREEFEQFPAEKIEAVCHAIAAHSFSAQIAPLTTEAKIVQDADRLEALGAIGLARVFAVSGALGVALFDGEDPFAQHRPLDDKRYALDHFQTKLLKLPQTMQTARGKQLAQHNAHFLVEFMAKLSAELAGENEGVDHKVIDAFSSAG	4.67
MTKTLLDGPGRVLESVYPRFLVDLAQGDDARLPQAHQQQFRERLMQELLSRVQLQTWTNGGMLNAPLSLRLTLVEKLASMLDPGHLALTQIAQHLALLQKMDHRQHSAFPELPQQIAALYEWFSARCRWKEKALTQRGLLVQAGDQSEQIFTRWRAGAYNAWSLPGRCFIVLEELRWGAFGDACRLGSPQAVALLLGDLLEKATQHLAESINAAPTTRHYYHQWFASSTVPTGGEHADFLSWLGKWTTADKQPVCWSVTQRWQTVALGMPRLCSAQRLAGAMLEEIFSVNLA	12.1
MQTEHVILLNAQGVPTGTLEKYAAHTADTRLHLAFSSWLFNAKGQLLVTRRALSKKAWPGVWTNSVCGHPQLGESNEDAVIRRCRYELGVEITPPESIYPDFRYRATDPSGIVENEVCPVFAARTTSALQINDDEVMDYQWCDLADVLHGIDATPWAFSPWMVMQATNREARKRLSAFTQLK	13.1
MKVLVTGATSGLGRNAVEFLCQKGISVRATGRNEAMGKLLEKMGAEFVPADLTELVSSQAKVMLAGIDTLWHCSSFTSPWGTQQAFDLANVRATRRLGEWAVAWGVRNFIHISSPSLYFDYHHHRDIKEDFRPHRFANEFARSKAASEEVINMLSQANPQTRFTILRPQSLFGPHDKVFIPRLAHMMHHYGSILLPHGGSALVDMTYYENAVHAMWLASQEACDKLPSGRVYNITNGEHRTLRSIVQKLIDELNIDCRIRSVPYPMLDMIARSMERLGRKSAKEPPLTHYGVSKLNFDFTLDITRAQEELGYQPVITLDEGIEKTAAWLRDHGKLPR	9.9
MSEKLQKVLARAGHGSRREIESIIEAGRVSVDGKIAKLGDRVEVTPGLKIRIDGHLISVRESAEQICRVLAYYKPEGELCTRNDPEGRPTVFDRLPKLRGARWIAVGRLDVNTCGLLLFTTDGELANRLMHPSREVEREYAVRVFGQVDDAKLRDLSRGVQLEDGPAAFKTIKFSGGEGINQWYNVTLTEGRNREVRRLWEAVGVQVSRLIRVRYGDIPLPKGLPRGGWTELDLAQTNYLRELVELPPETSSKVAVEKDRRRMKANQIRRAVKRHSQVSGGRRSGGRNNNG	10.6
MHLSTHPTSYPTRYQEIAAKLEQELRQHYRCGDYLPAEQQLAARFEVNRHTLRRAIDQLVEKGWVQRRQGVGVLVLMRPFDYPLNAQARFSQNLLDQGSHPTSEKLLSVLRPASGHVADALGITEGENVIHLRTLRRVNGVALCLIDHYFADLTLWPTLQRFDSGSLHDFLREQTGIALRRSQTRISARRAQAKECQRLEIPNMSPLLCVRTLNHRDGESSPAEYSVSLTRADMIEFTMEH	1.54
